meta.source: PubChem BioAssay

test: basal HepG2 mitochondrial membrane potential changes, profiling panel, cell-based, JC-1 fluorescence, 24 h, 100 nL compound (AID 1167); settings: higher = more signal; also: test concentration not given here
Reported values of z-score for individual entries
Just the number, please, no unit after it.

Please review the following examples before continuing.
{"MOLECULE": "CCOC(=O)NN=C1C[C@@H](O)[C@@H](O)[C@@H]2[C@@H]3C(=O)N(c4ccc(F)cc4F)C(=O)[C@@H]3CC[C@@H]12", "z-score": 0.333}
{"MOLECULE": "CCN1C(=O)[C@H]2[C@H]3[C@H](O)[C@H](O)CC(=O)[C@@H]3CC[C@H]2C1=O", "z-score": 0.231}
{"MOLECULE": "CCOC(=O)[C@H](CC(C)C)NC(=O)CCC1CC(OC(=O)NCCc2ccc(F)cc2)CC2(CCCC(COC(=O)NCCOc3ccccc3)O2)O1 (some centres undefined)", "z-score": -1.82}

From here, focus on the item given below.
Task: # get_value(readout='z-score', item= C=CC[C@@H]1C=C[C@H](ON=C(C)CCN2CCc3nc(-c4ccccc4)c(-c4ccccc4)cc3C2)[C@@H](CO)O1 )
Result: 3.86

====

assay: small-molecule microarray binders of probe aNog, primary screen, biochemical, biotinylated probe, 635/667 nm fluorescence (AID 1115); conditions: higher = more signal;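 also: probe is biotinylated aNog protein used at 0.15 µg/mL for 1 h at 4 C; z-score combines 667 nm fluorescence of each spot with its signal to noise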
READOUT_NAME: composite z-score
The answer should be written as a number, with no unit following it.

Task: Returns the measured composite z-score for the input compound. Input: CO[C@H]1COC(=O)[C@@H](Cc2ccccc2)NC(=O)[C@@H](C)COC(=O)CCC[C@@H]1C
Result: -0.412

Task: // query composite z-score value for entry CC(C)CON=C1C[C@@H](O)[C@@H](O)[C@@H]2[C@@H]3C(=O)N(C[C@@H]4CCCO4)C(=O)[C@@H]3CC[C@@H]12
Result: -0.103

Task: Tell me the measured composite z-score of C[C@H]1Cc2c(COc3ccccc3)nc3c(c2CO1)CN(CCOc1ccccc1)CC3 , please.
Result: -0.502

Task: What measured composite z-score goes with CCN1C(=O)[C@H]2[C@H]3[C@H](O)[C@H](O)CC(=NNC(=O)OCc4ccc(OC)cc4)[C@@H]3CC[C@H]2C1=O ?
Result: -0.272

Task: Which measured composite z-score value corresponds to CCN1C(=O)[C@H]2[C@H]3[C@H](O)[C@H](O)CC(=O)[C@H]3CC[C@H]2C1=O ?
Result: -0.158

====

Here, each record is paired with measured composite z-score data.
system: Wnt5a (protein binding on small-molecule microarray); assay: Wnt5a binders on small-molecule microarray, primary screen, biophysical, 635/667 nm fluorescence (AID 1142); conditions: 635 nm fluorescence, higher = more signal;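 also: fluorescence read at 667 nm with signal to noise per printed feature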
Could you keep your reply to the number by itself?

{"MOLECULE": "COC(=O)[C@H](C)NC(=O)CCC1CC(OC(=O)NCc2ccc3c(c2)OCO3)CC2(CCCC(COC(=O)NCC3CCCCC3)O2)O1 (some centres undefined)", "ENDPOINT_VALUE": 0.283}
{"MOLECULE": "Cc1cc2c(nc1C)CCCN2CC(O)CN1CCCc2nc(C)c(C)cc21", "ENDPOINT_VALUE": 0.424}
{"MOLECULE": "COCOc1ccc(Br)cc1C(=O)[C@@H]1O[C@H]1c1cccc(OC)c1", "ENDPOINT_VALUE": -0.202}

Task: Which measured composite z-score value corresponds to COCCNC(=O)OCC1CCCC2(CC(OC(=O)NCc3ccc4c(c3)OCO4)CC(CCC(=O)N[C@@H](C)C(=O)OC)O2)O1 (some centres undefined) ?
Result: -0.0558
